- targetSystem: human Orexin type 1 receptors (Homo sapiens (Human), UniProt O43613)
- Sequence (O43613 whole entry): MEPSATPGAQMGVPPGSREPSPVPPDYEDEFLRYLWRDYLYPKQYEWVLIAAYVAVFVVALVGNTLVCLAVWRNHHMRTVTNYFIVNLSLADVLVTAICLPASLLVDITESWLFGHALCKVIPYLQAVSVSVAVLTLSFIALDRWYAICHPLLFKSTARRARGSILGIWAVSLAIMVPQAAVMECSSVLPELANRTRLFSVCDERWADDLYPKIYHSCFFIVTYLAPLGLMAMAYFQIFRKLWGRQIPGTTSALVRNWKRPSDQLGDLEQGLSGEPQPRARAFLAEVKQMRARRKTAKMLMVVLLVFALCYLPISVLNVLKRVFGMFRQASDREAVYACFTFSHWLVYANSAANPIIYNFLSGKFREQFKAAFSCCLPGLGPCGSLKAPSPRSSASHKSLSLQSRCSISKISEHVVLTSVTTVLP
- experimentalProtocol: Scintillation Proximity Assay (SPA) binding assay, [3H]SB-674042 displacement, CHO-hOX1 membranes
- testSettings: Table 2, [3H]SB-674042 2 nM
reportedEndpoint: OX1 pKi (SPA binding)
Respond using a number only.

# annotated cases, reported OX1 pKi (SPA binding) shown
### Prompt Report OX1 pKi (SPA binding) for C[C@@H]1C2CC(C2)N(C(=O)c2cc(F)ccc2-n2nccn2)C1CNc1cnc2ccccc2n1 (mixture of isomers) [Example 187] tested on human Orexin type 1 receptors (Homo sapiens (Human), UniProt O43613).
### Response 8.19

### Prompt Report OX1 pKi (SPA binding) for Cc1ccc(-n2nccn2)c(C(=O)N2C3CC(C3)[C@H](C)C2CNc2nc3ccccc3s2)n1 (stereo partly shown) tested on human Orexin type 1 receptors (Homo sapiens (Human), UniProt O43613).
### Response 7.5

### Prompt Report OX1 pKi (SPA binding) for Cc1ccc(-n2nccn2)c(C(=O)N2C3CC(C3)[C@@H](C)C2CNc2cncc(C(F)(F)F)n2)n1 (mixture of isomers) tested on human Orexin type 1 receptors (Homo sapiens (Human), UniProt O43613).
### Response 6.85

***
### Prompt Report OX1 pKi (SPA binding) for CCOc1ccc(C)nc1C(=O)N1C2CC(C2)[C@@H](C)C1CNc1nc2ccc(F)cc2s1 (mixture of isomers) tested on human Orexin type 1 receptors (Homo sapiens (Human), UniProt O43613).
### Response 8.82

### Prompt Report OX1 pKi (SPA binding) for Cc1ccc(-n2nccn2)c(C(=O)N2C3CC(C3)[C@H](C)C2COc2ccc(Cl)cc2)n1 (single isomer, unassigned) [Example 119] tested on human Orexin type 1 receptors (Homo sapiens (Human), UniProt O43613).
### Response 7.08

### Prompt Report OX1 pKi (SPA binding) for Cc1nc(C(=O)N2C3CC(C3)[C@@H](C)C2CNc2nc3ccc(F)cc3s2)c(-c2ncccn2)s1 (mixture of isomers) [Example 162] tested on human Orexin type 1 receptors (Homo sapiens (Human), UniProt O43613).
### Response 8.83
